Just for reference, ChEMBL document CHEMBL1201862 is where these values come from.

Test system: CAKI-1
Assay: NCI tumour cell line growth inhibition, 48 h
Activity calls are given as the source filed them. Rule as the data show it: active = GI50 up to about 1.1 µM and inactive = higher.
Measured GI50 accompanies every entry in the list below.
property name: GI50

> print(dat)
                                    compound  property.name       measured.value
 1            NC(=O)NC(=O)c1cccc(NC(=O)CI)c1           GI50   < 0.01 µM (active)
 2  CCOP(=O)(O)C1C(CO)OC(n2ccc(=O)[nH]c2=O)C1O (stereo not given)           GI50  > 100 µM (inactive)
 3  O=S(=O)(Nc1nc2ccccc2nc1Nc1cccc2ccccc12)c1ccccc1           GI50   31.8 µM (inactive)
 4      N/N=C1\C(OC(=O)Nc2ccccc2)=Nc2ccccc21           GI50   14.9 µM (inactive)
 5  NNC(=O)c1cc([N+](=O)[O-])ccc1NC(=O)C12CC3CC(CC(C3)C1)C2           GI50    5.7 µM (inactive)
 6        N#CC1CNC(N)NC1N (stereo not given)           GI50  > 100 µM (inactive)
 7         CC(C)OP(=O)(NC(=S)c1ccccc1)OC(C)C           GI50  > 100 µM (inactive)
 8  COc1c2nc(CCl)[nH]c(=O)c2c(OC)c2nc(CCl)[nH]c(=O)c12           GI50  > 100 µM (inactive)
 9  O=S(=O)([C-]([I+]c1ccccc1)S(=O)(=O)C(F)(F)C(F)(F)C(F)(F)C(F)(F)F)C(F)(F)C(F)(F)C(F)(F)C(F)(F)F           GI50   13.2 µM (inactive)
10  CC(=O)NC(CCCCN(Cc1ccccc1)C(=O)N(C)N=O)C(=O)NCc1ccccc1 (stereo not given)           GI50  > 100 µM (inactive)
